Values were extracted from ChEMBL document CHEMBL4261631.

Overview of reported Ratio IC50 across a group of molecules:
assay: Selectivity index, ratio of IC50 for recombinant human LYP to IC50 for recombinant Mycobacterium tuberculosis PtpA

Consider the worked cases shown below.
- molecularString: "O=[N+]([O-])c1ccc(/C=N/NC(=S)Nc2cccc3ccccc23)cc1"
  result: "> 5.3"
- molecularString: "FC(F)(F)c1ccc(Cl)c(-c2ccc(/C=N/NC(=S)Nc3cccc4ccccc34)o2)c1"
  result: "> 10.3"
- molecularString: "S=C(N/N=C/c1ccc(-c2ccccc2)cc1)Nc1cccc2ccccc12"
  result: "> 6.8"

Okay, now this molecule:
Return reported Ratio IC50; argument: "Cc1ccc(NC(=S)N/N=C/c2ccc(-c3cc(C(F)(F)F)ccc3Cl)o2)cc1" > 5.5
